Every entry's value here was drawn from patent US7803792B2.

Listed compounds paired with reported pIC50
# TARGET OR SYSTEM: human IBAT (Homo sapiens)
# Sequence (Q12908 whole entry): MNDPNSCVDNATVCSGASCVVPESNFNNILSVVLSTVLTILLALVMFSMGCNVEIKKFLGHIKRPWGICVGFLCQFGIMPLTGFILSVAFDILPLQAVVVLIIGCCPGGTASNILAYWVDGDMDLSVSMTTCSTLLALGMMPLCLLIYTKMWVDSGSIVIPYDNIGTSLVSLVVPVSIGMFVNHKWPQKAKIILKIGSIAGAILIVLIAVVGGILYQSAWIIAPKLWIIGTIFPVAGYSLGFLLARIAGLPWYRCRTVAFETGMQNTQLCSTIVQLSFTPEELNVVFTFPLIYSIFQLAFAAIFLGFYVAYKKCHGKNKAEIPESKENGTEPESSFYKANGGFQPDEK
# TEST DESCRIPTION: In vitro assay of temporarily expressed human IBAT transporter using Cos 7 cells (Test Example 8)
# CONDITION: Cos 7 cells temporarily expressing human IBAT; [3H] taurocholate 8 μM, 37° C., 60 minutes
pIC50: −log10 of the molar value.
MEASURED PARAMETER: pIC50

COMPOUND: CCCCc1ccc[n+](Cc2ccc(NC(=S)Nc3cccc(C4NC(CCCC)(CCCC)CS(=O)(=O)c5ccc(N(C)C)cc54)c3)cc2)c1.[Br-] (stereo not drawn) [Example 3723]
MEASURED RESULT: 7.60
--
COMPOUND: C#CC[N+](C)(C)Cc1ccc(NC(=S)Nc2cccc(C3NC(CCCC)(CCCC)CS(=O)(=O)c4ccc(N(C)C)cc43)c2)cc1 (stereo not drawn) [Example 3433]
MEASURED RESULT: 7.26
--
COMPOUND: CCCCC1(CCCC)CS(=O)(=O)c2ccc(N(C)C)cc2C(c2cccc(NC(=S)Nc3cccc(C[N+](C)(C)Cc4cccc(OC)c4)c3)c2)N1 (stereo not drawn) [Example 4371]
MEASURED RESULT: 7.13

----------
# Test system: Caco 2 cells
# TEST DESCRIPTION: Toxicity with respect to alimentary canal: cytotoxicity to Caco 2, LDH activity (Test Example 12)
# Format: cell-based, human
# CONDITION: 30 μM; LDH activity after 2 hours, relative to cytolytic agent = 100%
Listed compounds paired with reported Toxicity (%) to Caco 2
MEASURED PARAMETER: Toxicity (%) to Caco 2

COMPOUND: CCCCC1(CCCC)CS(=O)(=O)c2ccc(N(C)C)cc2C(c2cccc(NC(=S)Nc3ccc(C[N+](C)(C)Cc4ccccc4)cc3)c2)N1.[Br-] (stereo not drawn) [Example 3440]
TARGET OR SYSTEM: Caco 2 cells
MEASURED RESULT: <1%
--
COMPOUND: CCCCC1(CCCC)CS(=O)(=O)c2ccc(N(C)C)cc2C(c2cccc(NC(=S)Nc3ccc(C[n+]4ccc5ccccc5c4)cc3)c2)N1.[Br-] (stereo not drawn) [Example 3783]
TARGET OR SYSTEM: Caco 2 cells
MEASURED RESULT: <1%
--
COMPOUND: CCCCC1(CCCC)CS(=O)(=O)c2ccc(N(C)C)cc2C(c2cccc(NC(=S)Nc3ccc(CC[N+](C)(C)Cc4ccccc4)cc3)c2)N1 (stereo not drawn) [Example 5043]
TARGET OR SYSTEM: Caco 2 cells
MEASURED RESULT: <1%

----------
# TARGET OR SYSTEM: rat IBAT (Rattus norvegicus)
# Sequence (Q62633 1-348): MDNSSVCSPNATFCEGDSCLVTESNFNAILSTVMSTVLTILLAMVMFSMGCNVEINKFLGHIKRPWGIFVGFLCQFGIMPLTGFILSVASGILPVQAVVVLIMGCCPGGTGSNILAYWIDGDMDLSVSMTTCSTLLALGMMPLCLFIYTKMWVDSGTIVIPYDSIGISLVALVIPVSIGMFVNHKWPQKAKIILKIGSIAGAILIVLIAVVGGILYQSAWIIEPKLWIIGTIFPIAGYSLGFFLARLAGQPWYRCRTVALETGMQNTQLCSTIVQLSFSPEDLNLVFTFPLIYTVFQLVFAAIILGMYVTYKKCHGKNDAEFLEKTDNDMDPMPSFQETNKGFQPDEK
# TEST DESCRIPTION: In vitro assay of temporarily expressed rat IBAT transporter using Cos 7 cells (Test Example 8)
# CONDITION: Cos 7 cells temporarily expressing rat IBAT; [3H] taurocholate 8 μM, 37° C., 60 minutes
Param label: returns rule met when IC50 < 9 nM, returns rule not met otherwise, including exact equality.

COMPOUND: CCCCC1(CCCC)CS(=O)(=O)c2ccc(N(C)C)cc2C(c2cccc(NC(=S)Nc3ccc(C[N+]45CCC(CC4)CC5)cc3)c2)N1.[Br-] (stereo not drawn)
DISCRETE LABEL: rule met
--
COMPOUND: CCCCC1(CCCC)CS(=O)(=O)c2ccc(N(C)C)cc2C(c2cccc(NC(=S)CCCCC[N+]34CCC(CC3)CC4)c2)N1.[Br-] (stereo not drawn)
DISCRETE LABEL: rule met
--
COMPOUND: CCCCC1(CCCC)CS(=O)(=O)c2ccc(N(C)C)cc2C(c2cccc(NC(=S)NCCC[N+]34CCC(CC3)CC4)c2)N1 (stereo not drawn)
DISCRETE LABEL: rule not met
--
COMPOUND: CCCCC1(CCCC)CS(=O)(=O)c2ccc(N(C)C)cc2C(c2cccc(NC(=S)Nc3ccc(C[N+](C)(C)Cc4ccccc4)cc3)c2)N1.[Br-] (stereo not drawn)
DISCRETE LABEL: rule not met
